This listing pairs compounds with measured ED50.
Test system: apomorphine induced climbing behavior
Test: Antipsychotic screen: apomorphine induced climbing behavior
Assay type: in vivo
Conditions: ip, 20 min; mouse, i.p. (marked in cell; head prints s.c.); apomorphine 1 mg/kg, observed 20 minutes after; read-out: Approx. 50% ED, apomorphine climbing

Use these answered entries as a reference point.
Compound	ED50
CCN1CCCC1CNC(=O)c1cccc2c1OC(C)C2 (centres unmarked) [drawing 99 R = H R' = H]	~20 mg/kg
CCN1CCCC1CNC(=O)c1cccc2cc(C)oc12 (centres unmarked) [drawing 97 R = CH3]	~3 mg/kg
CCN1CCCC1CNC(=O)c1cccc2c1OCC2 (centres unmarked) [drawing 98 R = H]	~20 mg/kg
CCN1CCCC1CNC(=O)c1cc(Br)cc2ccoc12 (centres unmarked)	~0.5 mg/kg

Turning to the following compound.
Query :: Give ED50 for CCN1CCCC1CNC(=O)c1cc(N)cc2c1OCC2.O=C(O)/C=C/C(=O)O (centres unmarked) [drawing 98 R = NH2]
Result :: ~25 mg/kg

----------
Tested on: apomorphine induced climbing behavior
Assay: Antipsychotic screen: apomorphine induced climbing behavior
Format: in vivo
Details: ip, 20 min; mouse, i.p. (marked in cell; head prints s.c.); apomorphine 1 mg/kg, observed 20 minutes after; read-out: Approx. 50% ED, apomorphine climbing
Parameter measured: ED50

Use these answered entries as a reference point.
Molecule	Result
CCN1CCCC1CNC(=O)c1cc(C)cc2c1OCC2.Cl (stereo not shown) [drawing 98 R = CH3]	~3 mg/kg
CCN1CCCC1CNC(=O)c1ccc(Cl)c2c1OC(C)C2.O=C(O)/C=C/C(=O)O (stereo not shown) [drawing 99 R = H R' = Cl]	~25 mg/kg
CCN1CCCC1CNC(=O)c1cc(OC)cc2c1OC(C)C2 (stereo not shown) [drawing 99 R = OCH3 R' = H]	~25 mg/kg
CCN1CCCC1CNC(=O)c1cc(Br)cc2c1OC(C)C2 (stereo not shown) [drawing 99 R = Br R' = H]	~2 mg/kg
O=C(NC1CCN(Cc2ccccc2)C1)c1cc(Br)cc2ccoc12 (stereo not shown)	~30 mg/kg

Query :: Enter ED50 (test system apomorphine induced climbing behavior) for CCN1CCCC1CNC(=O)c1cc([N+](=O)[O-])cc2c1OCC2 (stereo not shown) [drawing 98 R = NO2]
Result :: ~20 mg/kg

----------
Tested on: apomorphine induced climbing behavior
Assay: Antipsychotic screen: apomorphine induced climbing behavior
Format: in vivo
Details: ip, 20 min; mouse, i.p. (marked in cell; head prints s.c.); apomorphine 1 mg/kg, observed 20 minutes after; read-out: Approx. 50% ED, apomorphine climbing
This listing pairs compounds with measured ED50.

Compound	Measurement target	ED50
CCN1CCCC1CNC(=O)c1cc(Cl)cc2c1OCC2 (stereo not shown) [drawing 98 R = Cl]	apomorphine induced climbing behavior	~5 mg/kg

Query :: Give ED50 for CCN1CCCC1CNC(=O)c1cc(NC(C)=O)cc2c1OCC2.O=C(O)/C=C/C(=O)O (stereo not shown) [drawing 98 R = NHCOCH3]
Result :: ~50 mg/kg

Query :: Give ED50 for CCN1CCCC1CNC(=O)c1cccc2ccoc12 (stereo not shown) [drawing 97 R = H]
Result :: ~12 mg/kg

Query :: Give ED50 for CCN1CCCC1CNC(=O)c1cccc2c1OC(C)(C)C2 (stereo not shown) [drawing 109 R1 = R2 = CH3]
Result :: ~100 mg/kg

src = patent US4888353A
